Recorded measurements of Fold-Synergistic 1a (Q30E), one per entry
# Tested on: HCV replicon, genotype-1a variant with glutamine 30 changed to glutamate in the NS5A protein
# protocolDescription: microbe, parasite or virus in culture
# Assay type: cell-based, HCV genotype 1a
# protocolConditions: HCV replicon genotype 1a Q30E (Q→E) variant; test compound titrated with an NS5A-targeting compound (BMS-790052 fixed at 200 nM); ranking of synergist activity

Looking up O=C(c1cnccc1C(F)(F)F)N1CCC[C@H]1c1ncc(-c2ccc(-c3ccc(-c4cnc([C@@H]5CCCN5C(=O)c5cnccc5C(F)(F)F)[nH]4)cc3)cc2)[nH]1 [Compound S-134] , I see its Fold-Synergistic 1a (Q30E) listed as <10 fold

Looking up COC(=O)N[C@H](C(=O)NC1(c2nc(-c3ccc(-c4ccc(-c5c[nH]c(C6(NC(=O)[C@@H](NC(=O)OC)C(C)C)CC6)n5)cc4)cc3)c[nH]2)CC1)C(C)C [Compound N-20] , I see its Fold-Synergistic 1a (Q30E) listed as <10 fold

Looking up O=C(C1CCCC1)N1CCC[C@H]1c1ncc(-c2ccc(-c3ccc(-c4cnc([C@@H]5CCCN5C(=O)C5CCCC5)[nH]4)cc3)cc2)[nH]1 [Compound S-164] , I see its Fold-Synergistic 1a (Q30E) listed as <10 fold

Looking up CC(C)(C)[C@H](NC(=O)C1(CO)CCCCO1)c1nc(-c2ccc(-c3ccc(-c4c[nH]c([C@@H](NC(=O)C5(CO)CCCCO5)C(C)(C)C)n4)cc3)cc2)c[nH]1 (some centres unmarked) [Compound P-177] , I see its Fold-Synergistic 1a (Q30E) listed as >100 fold

Looking up CC(C)(NC1CCCCC1)C(=O)N[C@H](c1nc(-c2ccc(-c3ccc(-c4c[nH]c([C@@H](NC(=O)C(C)(C)NC5CCCCC5)C(C)(C)C)n4)cc3)cc2)c[nH]1)C(C)(C)C [Compound P-174] , I see its Fold-Synergistic 1a (Q30E) listed as >100 fold

Source of measurements: patent US9326973B2
